Provenance of the data: patent US20250206841A1

Target of assay: T1, human Trop-2 expressed on cell surface (human, UniProt P09758 27-323)
T1 sequence (looked up): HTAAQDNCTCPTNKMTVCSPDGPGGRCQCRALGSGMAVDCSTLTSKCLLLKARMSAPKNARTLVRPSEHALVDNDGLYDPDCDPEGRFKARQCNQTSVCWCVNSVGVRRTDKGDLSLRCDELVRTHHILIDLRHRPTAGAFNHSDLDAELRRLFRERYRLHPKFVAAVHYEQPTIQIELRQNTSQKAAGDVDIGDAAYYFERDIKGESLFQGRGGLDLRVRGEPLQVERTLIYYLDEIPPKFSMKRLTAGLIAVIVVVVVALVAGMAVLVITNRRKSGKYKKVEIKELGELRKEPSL
Test name: cell-based or functional assay
Property name: Internalization %, MCF-7, 0.5 µg/ml, 1 h
A bare number is not enough; add the unit after it.

# lookup: Internalization %, MCF-7, 0.5 µg/ml, 1 h of 9D7-2 (antibody, V domains shown) VH: QSLEESGGDLVQPGASLTLTCKASGFDLNNYSILWVRQAPGKGLEWIGSIYISGGSTYYANWAKGRFAISKTSSTTVTLQMTSLTAADTATYFCARDDGTASYYLNLWGPGTLVTVSS VL: YDMTQTPASVSEPVGGTVTIKCQASEDIYKLLAWYQQKPGQPPKLLIYAASDLESGVPSRFKGRGSGTDYTLTISDLEAADAATYYCQQAYTIGNIDNSFGGGTEVVVK 28%

Check 63H3 (antibody, V domains shown, Rabbit-derived clone; LEM construct: VH + rabbit IgG CH1 + human IgG1 CH2-CH3) VH: QEQLKESGGGLVQPGGSLKLSCKASGFDFNSYGVSWVRQAPGKGLEWIAYIYPAFHNAYYANWVNGRFTISSDNAQNTVDLQLNSLTAADTATYFCARDAGGTDYNYNLWGPGTLVTVSS VL: DVVMTQTPASVEVAVGGTVTLKCQASEDIESYSAWYQQKPGQPPNLLIYEASKLASGVSSRFSGSGYGTEFTLTISGVECADAATYYCQQALTIGNVDNPFGGGSEVVVR too. 23%

Same lookup for 1D10 (antibody, V domains shown, Rabbit-derived clone; LEM construct: VH + rabbit IgG CH1 + human IgG1 CH2-CH3) VH: QEQLKESGGGLVQPGGSLTLSCKASGFDFNYYGVSWVRQAPGKGLEWIGYIYPAYHNTYYATWVNGRFTISSHNAQNTLYLQLNTLTAADTATYFCARDAGSTDYNLNLWGPGTLVTVSS VL: DVVMTQTPASVEVAVGGTVTIKCQASEDIESYLAWYQQKPGQPPRLLIYEASKLASGVSSRFSGGGYGTDFTLTISGVECADAATYYCHQALTIGNVDNPFGGGGEVVVK , please. 44%

Next binder up: 5D4-1 (antibody, V domains shown) VH: QQLEESGGGLVKPEGSLTLTCKGSGFDFSGTYWMWWVRQAPGKGLEWIAPIYVGSGSSTYYASWAKGRFTISSTSSTAVTLQATSLTAADTATYFCARGATNNVFMNYFNLWGPGTLVTVSS VL: FEMTQTPSSVSEPVGGTVTIKCQASEDISSNLGWYQQKPGQPPKLLIYGASTLASGVPSRFKGSGSGTEFTLTISDLEPADAATYYCQTSYYIDDGVNGFGGGTEVVVK 42%

And then 5D4-2 (antibody, V domains shown) VH: QQLEESGGGLVKPEGSLTLTCKGSGFDFSGTYWMWWVRQAPGKGLEWIASIYVGSGSSTYYASWAKGRFTISSTSSTAVTLQATSLTAADTATYFCARGATNNVFMNYFNLWGPGTLVTVSS VL: FEMTQTPSSVSEPVGGTVTIKCQASEDISSNLGWYQQKPGQPPKLLIYGASTLASGVPSRFKGSGSGTEFTLTISDLEAADAATYYCQTSYYIDDGVNGFGGGTEVVVK , what is it? 23%
